The values you see were collected from PubChem BioAssay (NCI).

Overview of recorded growth for various compounds
System: TK-10 renal
Test: NCI-60 one-dose screen, 48 h (100 = growth as untreated, 0 = no growth, -100 = all killed)
Conditions: 10 µM unless noted
Description: Growth inhibition of the TK-10 human tumor cell line is measured as a screen for anti-cancer activity. Cells are grown in 96 well plates and exposed to the test compound for 48 hours. Compounds are tested at a single concentration, which is 10^-5 M for most compounds. The reported endpoint is percent growth (GI% or GIPRCNT), where numbers from 0 - 100% represent growth inhibition, and numbers from -100% - 0 represent cell death. For example, a value of 40 represents 60% growth inhibition. […]
This is part of a sample that, as a whole, favours compounds with a hit. Of some 83,000 tested, about 20% had one in any assay.
measured-attribute: growth (%)

• O=C(Oc1ccc[nH]c1=O)c1cccc(Cl)c1 = 107
• COc1ccc(-c2nn(-c3ccccc3)cc2/C=C2\SC(=S)N(CCc3ccc(O)cc3)C2=O)cc1 = 94.2
• COc1ccc(Nc2ccnc(NCCCNc3ccnc4cc(Cl)ccc34)n2)cc1 = -72.3
• c1coc([C@@H]2C[C@@H]3Cc4ccc5ccccc5c4N2O3)c1 = 88.6
• CCCCCCCC/C=C\CCCCCCCCOc1ccccc1CC(=O)NCC[N+]1(C)CCCC1 = 70.5

----------
Overview of recorded growth for various compounds
Tested on: SR leukemia
Assay: NCI-60 one-dose screen, 48 h (100 = growth as untreated, 0 = no growth, -100 = all killed)
Details: 10 µM unless noted
Protocol: Growth inhibition of the SR human tumor cell line is measured as a screen for anti-cancer activity. Cells are grown in 96 well plates and exposed to the test compound for 48 hours. Compounds are tested at a single concentration, which is 10^-5 M for most compounds. The reported endpoint is percent growth (GI% or GIPRCNT), where numbers from 0 - 100% represent growth inhibition, and numbers from -100% - 0 represent cell death. For example, a value of 40 represents 60% growth inhibition. […]
About 83,000 compounds went through this panel and 20% of them were active in at least one assay; those are over-represented in the sample as a whole.
measured-attribute: growth (%)

* Cc1cc(O)c2c(c1)C[C@H]1[C@@H]3CC[C@H]4CC(=O)CC[C@]4(C)[C@H]3CC(=O)[C@]21C | 59.2
* O=C1c2ccccc2C(=O)c2c1cccc2-n1nnc2ccccc21 | 104
* c1ccc(-c2nnc(Nc3nnc(-c4ccccc4)s3)s2)cc1 | 97.4
* N=C(N)/N=C(\CCc1nc2ccccc2[nH]1)c1nc2ccccc2[nH]1 | 83.9
* CCC1=C(c2ccc(OC)cc2)C(C)(C)Oc2cc(O)c(CN3CCCC3)cc21 | 9.49

----------
Test system: NCI-H522 lung
Test: NCI-60 one-dose screen, 48 h (100 = growth as untreated, 0 = no growth, -100 = all killed)
Settings: 10 µM unless noted
This is part of a sample that, as a whole, favours compounds with a hit. Of some 83,000 tested, about 20% had one in any assay.
Overview of recorded growth for various compounds
measured-attribute: growth (%)

- CCOC(=O)C1=C(C)N2C(=NC3=C(CCC/C3=C\c3ccc(Cl)cc3)C2c2ccc(Cl)cc2)S1 (centres undefined): 58
- COc1cc(C2NC(c3ccc(Cl)cc3)C(C)C(=NC(=O)c3cnccn3)C2C)cc(OC)c1OC (centres undefined): 85.4
- CC[N+](CC)(CCOCCOCC[N+](CC)(CC)Cc1ccc([N+](=O)[O-])cc1)Cc1ccc([N+](=O)[O-])cc1: 93.4
- O=C(Nc1nc2ccccc2s1)c1cc(-c2ccc(F)cc2)n2nc(-c3ccccc3)cc2n1: 101
- O=C1/C(=C/c2ccc3cccc(Cl)c3n2)SC(=S)N1CCc1ccc(O)cc1: 54.9
- CC(=O)c1cc(C(=O)c2ccc3c(c2)Sc2ccccc2N3)c2c(C)cc(C)cn12: -31.2
- O=[N+]([O-])c1cnc(Sc2ccncn2)c([N+](=O)[O-])c1: -83.1
- CC(=O)NC1(C(=O)O)CCCC1: 103
- CO[C@H]1/C=C/O[C@@]2(C)Oc3c(C)c(O)c4c(O)c(c(/C=N/N5C(C)CN(Cc6ccccc6)CC5C)c(O)c4c3C2=O)NC(=O)/C(C)=C\C=C\[C@H](C)[C@H](O)[C@@H](C)[C@@H](O)[C@@H](C)[C@H](OC(C)=O)[C@@H]1C (some centres undefined): -12.5

----------
System: NCI-H226 lung
Experiment: NCI-60 one-dose screen, 48 h (100 = growth as untreated, 0 = no growth, -100 = all killed)
Conditions: 10 µM unless noted
About 83,000 compounds went through this panel and 20% of them were active in at least one assay; those are over-represented in the sample as a whole.
measured-attribute: growth (%)

- CCN1C2=C(SC(=S)C1=C1SC(C(=O)OC)=C(C(=O)OC)S1)SC(=Nc1ccc(OC)cc1)C2=O: -66.7
- O=C1C2C3C=CC(O3)C2C(=O)N1Nc1ccccc1 (centres undefined): 109
- CC/C=C\C=C/C(=O)N/C=C/CC1Cc2cccc(O)c2C(=O)O1 (centres undefined): 110
- O=C1CC(=O)N(c2ccccc2)O1: 91.2
- O=C(/C=C/c1cccnc1)NCCCCC1CCCN(C(=O)c2ccccc2)C1 (centres undefined): 98.5
- c1ccc(-c2nnc(Nc3nnc(-c4ccccc4)s3)s2)cc1: 101
- CCN1C(=O)c2ccc3c4c(ccc(c24)C1=O)C(=O)N(CCCNCc1ccccc1OC)C3=O: -36.6
- Fc1ccc(-c2nnc(/C=C/c3cn(-c4ccccc4)nc3-c3ccccc3)o2)cc1: 92.8
- CCOc1cc(C(C)(C)C)ccc1C1=N[C@H](c2ccc(Cl)cc2)[C@H](c2ccc(Cl)cc2)N1C(=O)N1CCN(CC#Cc2cccc3c2CN([C@@H]2CCC(=O)NC2=O)C3=O)CC1: -17.3

----------
System: SNB-19 CNS
Assay: NCI-60 one-dose screen, 48 h
Conditions: 10 µM unless noted
Method: Growth inhibition of the SNB-19 human tumor cell line is measured as a screen for anti-cancer activity. Cells are grown in 96 well plates and exposed to the test compound for 48 hours. Compounds are tested at a single concentration, which is 10^-5 M for most compounds. The reported endpoint is percent growth (GI% or GIPRCNT), where numbers from 0 - 100% represent growth inhibition, and numbers from -100% - 0 represent cell death. For example, a value of 40 represents 60% growth inhibition. […]
The panel holds about 83,000 compounds, 20% with a hit somewhere; the sample as a whole holds those more often. Active and inactive are the calls of the source. The calls were made as follows: active = growth percent below 10; inactive = the rest.
Classes used: class 1 for active, class 0 for inactive

- Cc1cc(NC(=O)Nc2cccc3ccccc23)no1: class 0
- CCC1=C(c2ccc(OC)cc2)C(C)Oc2cc(OC(C)=O)ccc21 (stereo unspecified): class 0
- Cc1ccc2c(c1)O/C(=C\c1ccc([N+](=O)[O-])o1)C2=O: class 0
- COc1ccccc1[C@H]1c2[nH]c3ccccc3c2C[C@H]2C(=O)N(CCCCCCC(=O)NO)CC(=O)N12: class 0
- COc1ccc(-c2nn(-c3cccc(Cl)c3)cc2C2CC(c3ccccc3)=NN2C(C)=O)cc1 (stereo unspecified): class 0
- c1ccc(-c2nn[nH]n2)c(-c2ccc(CN3CCN(c4nsc5ccccc45)CC3)cc2)c1: class 0
- CCCc1cccc(CCC)c1O: class 0
- O=C(Nc1nc(-c2ccccc2)cs1)c1cc(O)c(O)c(O)c1: class 0
- COc1ccc(C(=O)COc2cccc(/C=C3\Oc4ccc5ccccc5c4C3=O)c2)cc1: class 0
- CC(NC(=O)C(C)Oc1ccc(Cl)cc1Cl)C(=O)O (stereo unspecified): class 0
- COc1cccc2c1C(=O)c1c(O)c3c(c(O)c1C2=O)C[C@@](O)(/C(C)=N/NC(=O)c1cccc([N+](=O)[O-])c1)C[C@@H]3OC1CC(N)C(O)C(C)O1 (stereo partly specified): class 1
- O=C(CCc1nnc2sc(-c3ccc(Cl)cc3Cl)nn12)c1nc2ccccc2[nH]1: class 1
- CCCc1cc(=O)n2c(C(=O)Nc3ccccc3OC)c(C(=O)Nc3ccc(F)cc3)sc2n1: class 0
- CCOC(=O)/C=C(/C)Sc1cc(O)c2ccccc2c1O: class 1
- C[N+]1(CCC[N+]2(C)C[C@@H]3[C@H](C2)[C@@H]2C=C[C@H]3C2)CCOCC1 (stereo partly specified): class 0
- O=C(CSCC(=O)N/N=C/c1ccccc1O)N/N=C\c1ccccc1O: class 0
- COc1cc2c(-c3nc4cc(Cl)c(F)cc4s3)cc(=O)oc2c(C)c1OC: class 0
- COc1cccc(-c2nnc(N)o2)c1: class 0
- Cc1cc(O)c2c(c1)C[C@H]1[C@@H]3CC[C@H]4CC(=O)CC[C@]4(C)[C@H]3CC(=O)[C@]21C: class 0
- CC(=O)Nc1ccc2c(c1)Cc1c(F)c(F)c(F)c(F)c1-2: class 0
- CC(C)(C)c1ccc(S(=O)(=O)O)s1: class 0
